Field: log10(IC50). Provide a value for each of the compounds that follow.
# Target of assay: Menin-MLL1 (Homo sapiens, UniProt O00255)
# Construct: Menin (2-610) isform2
# Sequence (O00255 2-610): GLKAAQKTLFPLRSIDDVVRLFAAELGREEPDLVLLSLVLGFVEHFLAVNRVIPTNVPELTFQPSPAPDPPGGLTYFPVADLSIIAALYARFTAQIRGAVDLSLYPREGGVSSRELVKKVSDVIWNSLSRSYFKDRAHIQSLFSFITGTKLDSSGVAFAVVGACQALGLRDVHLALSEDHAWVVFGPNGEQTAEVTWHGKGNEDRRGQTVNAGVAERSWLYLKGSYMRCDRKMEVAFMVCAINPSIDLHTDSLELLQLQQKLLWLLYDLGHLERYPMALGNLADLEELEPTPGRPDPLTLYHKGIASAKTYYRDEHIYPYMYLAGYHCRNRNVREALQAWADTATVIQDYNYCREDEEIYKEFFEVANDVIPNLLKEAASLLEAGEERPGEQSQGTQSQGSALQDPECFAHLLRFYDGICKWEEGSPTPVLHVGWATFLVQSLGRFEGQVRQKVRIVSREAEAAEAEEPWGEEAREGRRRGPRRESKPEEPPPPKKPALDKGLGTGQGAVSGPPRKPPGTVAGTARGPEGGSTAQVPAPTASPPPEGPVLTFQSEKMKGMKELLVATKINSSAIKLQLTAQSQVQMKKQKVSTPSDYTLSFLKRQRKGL
# Experiment: Menin-MLL1 inhibition assay (fluorescence polarization, Menin protein + FAM-MLL peptide)
# Assay context: Menin (2-610) isoform 2, FAM-labelled MLL peptide, mP readout; read-out: Biochemical assay Menin-MLL1 IC50
In plain terms, each number is the log10 of measured IC50 in nM.

Input line: Write down measured log10(IC50) (Menin-MLL1 (Homo sapiens, UniProt O00255)) for this compound. CCN(C(=O)c1cc(F)ccc1Oc1nncnc1N1CC2(CCN(C(=O)[C@@H]3NCC[C@H]3C(F)F)CC2)C1)C(C)C [Example 99b]
Output line: 1.63

Input line: Write down measured log10(IC50) (Menin-MLL1 (Homo sapiens, UniProt O00255)) for this compound. "CCN(C(=O)c1cc(F)ccc1Oc1nncnc1N1CC2(CCN(C(=O)[C@H]3NCC[C@H]3C)CC2)C1)C(C)C"
Output line: 0.54

Input line: Write down measured log10(IC50) (Menin-MLL1 (Homo sapiens, UniProt O00255)) for this compound. "CCN(C(=O)c1cc(F)ccc1Oc1cncnc1N1CC2(CCN(C(=O)[C@@H]3C[C@@H](F)CN3)CC2)C1)C(C)C"
Output line: 0.63

Input line: Write down measured log10(IC50) (Menin-MLL1 (Homo sapiens, UniProt O00255)) for this compound. CCN(C(=O)c1cc(F)ccc1Oc1nncnc1N1CC2(CCN(C(=O)[C@@H]3NC[C@@H]4CC(F)(F)C[C@@H]43)CC2)C1)C(C)C (single isomer, unassigned) [Example 98b]
Output line: 1.34

Input line: Write down measured log10(IC50) (Menin-MLL1 (Homo sapiens, UniProt O00255)) for this compound. "CCN(C(=O)c1cc(F)ccc1Oc1cncnc1N1CC2(CCN(C(=O)[C@@H]3C[C@H]4C[C@H]4N3)CC2)C1)C(C)C"
Output line: 0.81

Input line: Write down measured log10(IC50) (Menin-MLL1 (Homo sapiens, UniProt O00255)) for this compound. "CCN(C(=O)c1cc(F)ccc1Oc1nnc(Cl)nc1N1CC2(CCN(C(=O)[C@H]3NC[C@@H]4C[C@@H]43)CC2)C1)C(C)C"
Output line: 0.86

Input line: Write down measured log10(IC50) (Menin-MLL1 (Homo sapiens, UniProt O00255)) for this compound. "CCN(C(=O)c1cc(F)ccc1Oc1nncnc1N1CC2(CCN(C(=O)[C@H]3NC[C@@H]4CCC[C@@H]43)CC2)C1)C(C)C"
Output line: 0.66

Input line: Write down measured log10(IC50) (Menin-MLL1 (Homo sapiens, UniProt O00255)) for this compound. "O=C([C@H]1NC[C@@H]2CCC[C@@H]21)N1CCC2(CC1)CN(c1ncnnc1Oc1ccc(F)cc1-c1cncnc1C1CC1)C2"
Output line: 0.62

Input line: Write down measured log10(IC50) (Menin-MLL1 (Homo sapiens, UniProt O00255)) for this compound. "C[C@H]1CCN[C@@H]1C(=O)N1CCC2(CC1)CN(c1ncnnc1Oc1ccc(F)cc1-c1ccc(C#N)cc1C1CC1)C2"
Output line: 1.00

Input line: Write down measured log10(IC50) (Menin-MLL1 (Homo sapiens, UniProt O00255)) for this compound. "N#Cc1ccc(-c2cc(F)ccc2Oc2nncnc2N2CC3(CCN(C(=O)[C@@H]4C[C@@H](F)CN4)CC3)C2)c(C2CC2)c1"
Output line: 0.45

Input line: Write down measured log10(IC50) (Menin-MLL1 (Homo sapiens, UniProt O00255)) for this compound. "CCN(C(=O)c1cc(F)ccc1Oc1nncnc1N1CC2(CCN(C(=O)[C@H]3NC[C@@H]4C[C@@H]43)CC2)C1)C(C)C"
Output line: 0.36

Input line: Write down measured log10(IC50) (Menin-MLL1 (Homo sapiens, UniProt O00255)) for this compound. "CCN(C(=O)c1cc(F)ccc1Oc1nncnc1N1CC2(CCN(C(=O)[C@@H]3NC[C@@H](C)[C@H]3C)CC2)C1)C(C)C"
Output line: 1.39

Input line: Write down measured log10(IC50) (Menin-MLL1 (Homo sapiens, UniProt O00255)) for this compound. "CCN(C(=O)c1cc(F)ccc1Oc1cncnc1N1CC2(CCN(C(=O)[C@@H]3C[C@@H](c4ccccc4)CN3)CC2)C1)C(C)C"
Output line: 1.06

---

# Target of assay: Menin-MLL1 (Homo sapiens, UniProt O00255)
# Construct: Menin (2-610) isform2
# Experiment: Menin-MLL1 inhibition assay (fluorescence polarization, Menin protein + FAM-MLL peptide)
# Assay context: Menin (2-610) isoform 2, FAM-labelled MLL peptide, mP readout; read-out: Biochemical assay Menin-MLL1 IC50
Readout label: pIC50
# pIC50 = -log10(concentration in molar units)

Input line: Report pIC50 for CCN(C(=O)c1cc(F)ccc1Oc1cncnc1N1CC2(CCN(C(=O)[C@@H]3C[C@@]4(CN3)CC4(F)F)CC2)C1)C(C)C [Example 24]
Output line: 8.10

Input line: Report pIC50 for CCN(C(=O)c1cc(F)ccc1Oc1nncnc1N1CC2(CCN(C(=O)[C@@H]3NCCC3(C)C)CC2)C1)C(C)C [Example 66]
Output line: 7.96

Input line: Report pIC50 for [2H]c1c(F)cc(C(=O)N(CC)C(C)C)c(Oc2cncnc2N2CC3(CCN(C(=O)[C@@H]4C[C@@H](F)CN4)CC3)C2)c1[2H] [Example 31]
Output line: 8.17

Input line: Report pIC50 for CC1(C)[C@@H]2[C@@H](C(=O)N3CCC4(CC3)CN(c3ncnnc3Oc3ccc(F)cc3-c3ccc(C#N)nc3C3CC3)C4)NC[C@@H]21 [Example 95]
Output line: 8.60

Input line: Report pIC50 for CCN(C(=O)c1cc(F)ccc1Oc1cncnc1N1CC2(CCN(C(=O)[C@@H]3C[C@](F)(CF)CN3)CC2)C1)C(C)C [Example 12]
Output line: 8.33

Input line: Report pIC50 for O=C([C@@H]1C[C@@H](F)CN1)N1CCC2(CC1)CN(c1ncnnc1Oc1ccc(F)cc1-c1cncnc1C1CC1)C2 [Example 62]
Output line: 8.47

Input line: Report pIC50 for CCN(C(=O)c1cc(F)ccc1Oc1nncnc1N1CC2(CCN(C(=O)[C@@H]3C[C@@H](C)CN3)CC2)C1)C(C)C [Example 60]
Output line: 8.35

Input line: Report pIC50 for CO[C@H]1CCN[C@@H]1C(=O)N1CCC2(CC1)CN(c1ncnnc1Oc1ccc(F)cc1-c1ccc(C#N)cc1C1CC1)C2 [Example 96]
Output line: 8.40

Input line: Report pIC50 for N#Cc1ccc(-c2cc(F)ccc2Oc2nncnc2N2CC3(CCN(C(=O)[C@H]4NC[C@@H]5C[C@@H]54)CC3)C2)c(C2CC2)c1 [Example 78]
Output line: 8.54

Input line: Report pIC50 for CC(C)n1ncnc1-c1cc(F)ccc1Oc1cncnc1N1CC2(CCN(C(=O)[C@@H]3C[C@@H](F)CN3)CC2)C1 [Example 43]
Output line: 8.32

Input line: Report pIC50 for CCN(C(=O)c1cc(F)ccc1Oc1cncnc1N1CC2(CCN(C(=O)[C@H]3NCC[C@H]3C)CC2)C1)C(C)C [Example 40]
Output line: 8.27

Input line: Report pIC50 for C[C@H]1CCN[C@@H]1C(=O)N1CCC2(CC1)CN(c1ncnnc1Oc1ccc(F)cc1-c1cncnc1C1CC1)C2 [Example 77]
Output line: 8.47

Input line: Report pIC50 for CC(C)N(CCO)C(=O)c1cc(F)ccc1Oc1cncnc1N1CC2(CCN(C(=O)[C@@H]3C[C@@H](F)CN3)CC2)C1 [Example 49]
Output line: 8.44

Input line: Report pIC50 for CCN(C(=O)c1cc(F)ccc1Oc1cncnc1N1CC2(CCN(C(=O)[C@@H]3CSCN3)CC2)C1)C(C)C [Example 52]
Output line: 7.68

Input line: Report pIC50 for N#Cc1ccc(-c2cc(F)ccc2Oc2nncnc2N2CC3(CCN(C(=O)[C@H]4NC[C@@H]5CCC[C@@H]54)CC3)C2)c(C2CC2)n1 [Example 90]
Output line: 8.55

Input line: Report pIC50 for CCN(C(=O)c1cc(F)ccc1Oc1nncnc1N1CC2(CCN(C(=O)[C@H]3NC[C@@H]4CC(F)(F)C[C@@H]43)CC2)C1)C(C)C (single isomer, unassigned) [Example 98d]
Output line: 8.64

Input line: Report pIC50 for CCN(C(=O)c1cc(F)ccc1Oc1cncnc1N1CC2(CCN(C(=O)[C@@H]3C[C@@H]4C[C@@H]4N3)CC2)C1)C(C)C [Example 30]
Output line: 8.33

Input line: Report pIC50 for CCN(C(=O)c1ccccc1Oc1cncnc1N1CC2(CCN(C(=O)[C@@H]3C[C@@H](F)CN3)CC2)C1)C(C)C [Example 36]
Output line: 8.40

Input line: Report pIC50 for CCN(C(=O)c1cc(F)ccc1Oc1cncnc1N1CC2(CCN(C(=O)[C@@H]3C[C@]4(C)C[C@@H]4N3)CC2)C1)C(C)C [Example 6]
Output line: 8.22

Input line: Report pIC50 for CC(C)N(CCO)C(=O)c1cc(F)ccc1Oc1nncnc1N1CC2(CCN(C(=O)[C@H]3NC[C@@H]4CCC[C@@H]43)CC2)C1 [Example 104]
Output line: 8.35

Input line: Report pIC50 for CCN(C(=O)c1cc(F)ccc1Oc1cncnc1N1CC2(CCN(C(=O)[C@H]3NCC[C@H]3O)CC2)C1)C(C)C [Example 7]
Output line: 8.12

Input line: Report pIC50 for CCN(C(=O)c1cc(F)ccc1Oc1cncnc1N1CC2(CCN(C(=O)[C@@H]3C[C@@H](NS(C)(=O)=O)CN3)CC2)C1)C(C)C [Example 18]
Output line: 7.87

Input line: Report pIC50 for CCN(C(=O)c1cc(F)ccc1Oc1nncnc1N1CC2(CCN(C(=O)[C@H]3NCC[C@@H]3C(F)F)CC2)C1)C(C)C [Example 99a]
Output line: 8.27

Input line: Report pIC50 for CC(C)N(C(=O)c1cc(F)ccc1Oc1nncnc1N1CC2(CCN(C(=O)[C@@H]3C[C@@H](C)CN3)CC2)C1)C(C)C [Example 73]
Output line: 8.39

Input line: Report pIC50 for CCN(C(=O)c1cc(F)ccc1Oc1cncnc1N1CC2(CCN(C(=O)[C@]3(C)CCCN3)CC2)C1)C(C)C [Example 22]
Output line: 8.31

Input line: Report pIC50 for CCN(C(=O)c1cc(C#N)ccc1Oc1cncnc1N1CC2(CCN(C(=O)[C@@H]3C[C@@H](F)CN3)CC2)C1)C(C)C [Example 17]
Output line: 7.60
